TESTED_TARGET: human TLR7 (Homo sapiens)
ASSAY_REMARKS: HEK293-Blue-hTLR-7 cells assay (SEAP reporter, R848 stimulation)
EXPERIMENTAL_CONTEXT: HEK293-Blue-hTLR7 cells, R848 ligand, 20 hrs incubation; read-out: HEK/hTLR7 IC50
Description: The following tests were carried out in order to determine the activity of the compounds of formula (I) in HEK293-Blue-hTLR-7/8/9 cells assay. A stable HEK293-Blue-hTLR-7 cell line was purchased from InvivoGen (Cat.#: hkb-htlr7, San Diego, California, USA). These cells were originally designed for studying the stimulation of human TLR7 by monitoring the activation of NF-κB. […]
pIC50: −log10 of the molar value.
EXPERIMENTAL_READOUT: pIC50

[[record]]
compound = "C[C@@H]1CN(c2ccc(C#N)c3ncccc23)C[C@H](C)N1Cc1ncc(N2CCNCC2)cn1"
experimental_readout = "pIC50"
test_result = 7.80


(P) C[C@@H]1CN(c2ccc(C#N)c3ncccc23)C[C@H](C)N1Cc1ccc(N2CCNCC2)nc1
(Q) CC1CN(c2ccc(C#N)c3ncccc23)CCN1CC(=O)Nc1ccc(N2CCNCC2)cc1 (stereo not shown)
(R) C[C@@H]1CN(c2ccc(C#N)c3ncccc23)C[C@H](C)N1CC(=O)N1Cc2ccc(N3CCNCC3)cc2C1
Req: Arrange these compounds by their pIC50, starting with the largest number. Response field: labels, in requested order.
Resp: P, R, Q

---

TESTED_TARGET: human TLR7 (Homo sapiens, UniProt Q9NYK1)
Sequence (Q9NYK1 27-1049): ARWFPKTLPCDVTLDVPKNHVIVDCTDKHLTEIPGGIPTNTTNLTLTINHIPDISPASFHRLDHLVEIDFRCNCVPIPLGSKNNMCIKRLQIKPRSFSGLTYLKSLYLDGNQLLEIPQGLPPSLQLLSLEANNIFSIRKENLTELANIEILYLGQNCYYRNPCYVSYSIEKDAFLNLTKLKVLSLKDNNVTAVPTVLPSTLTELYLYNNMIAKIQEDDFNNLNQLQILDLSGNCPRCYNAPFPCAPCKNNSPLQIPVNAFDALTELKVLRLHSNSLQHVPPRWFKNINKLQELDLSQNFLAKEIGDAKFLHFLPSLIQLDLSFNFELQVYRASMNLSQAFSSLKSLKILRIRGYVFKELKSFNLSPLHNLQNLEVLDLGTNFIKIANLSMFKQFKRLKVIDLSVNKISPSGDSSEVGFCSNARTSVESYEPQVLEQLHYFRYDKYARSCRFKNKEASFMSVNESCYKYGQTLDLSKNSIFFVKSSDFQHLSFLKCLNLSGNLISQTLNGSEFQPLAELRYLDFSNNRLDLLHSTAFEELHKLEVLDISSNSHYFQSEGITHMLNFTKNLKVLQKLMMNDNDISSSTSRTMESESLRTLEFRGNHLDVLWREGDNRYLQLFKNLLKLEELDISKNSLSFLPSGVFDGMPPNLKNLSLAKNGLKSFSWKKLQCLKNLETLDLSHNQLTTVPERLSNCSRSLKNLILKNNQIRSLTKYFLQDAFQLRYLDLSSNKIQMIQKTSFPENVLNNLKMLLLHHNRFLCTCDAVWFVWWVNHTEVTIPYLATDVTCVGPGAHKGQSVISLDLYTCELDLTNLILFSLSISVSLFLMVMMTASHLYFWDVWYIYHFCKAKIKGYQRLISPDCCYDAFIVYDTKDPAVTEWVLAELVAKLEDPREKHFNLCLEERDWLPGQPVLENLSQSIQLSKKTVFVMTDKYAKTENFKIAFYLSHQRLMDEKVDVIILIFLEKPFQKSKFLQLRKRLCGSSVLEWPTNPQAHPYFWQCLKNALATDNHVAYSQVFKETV
ASSAY_REMARKS: HEK293-Blue-hTLR-7 cells assay (SEAP reporter, R848 stimulation)
EXPERIMENTAL_CONTEXT: HEK293-Blue-hTLR7 cells, R848 ligand, 20 hrs incubation; read-out: HEK/hTLR7 IC50
pIC50: −log10 of the molar value.
EXPERIMENTAL_READOUT: pIC50

Examples with their reported pIC50 follow.
[[record]]
compound = "C[C@@H]1CN(c2ccc(C#N)c3ncccc23)C[C@H](C)N1Cc1ncc(N2CCN(C(=O)CN(C)C)CC2)cn1 [Example 6]"
test_result = 7.17

[[record]]
compound = "C[C@@H]1CN(c2ccc(C#N)c3ncccc23)C[C@H](C)N1CC(=O)N1CCc2cc(N3CCNCC3)ccc2C1 [Example 14]"
test_result = 7.10


(A) C[C@@H]1CN(c2ccc(C#N)c3ncccc23)C[C@H](C)N1Cc1ccc(N2CCNCC2CO)cc1 (stereo partly shown) [Example 12]
(B) C[C@@H]1CN(c2ccc(C#N)c3ncccc23)C[C@H](C)N1Cc1ccc(N[C@@H]2CNC[C@@H]2F)cn1 [Example 9]
Req: Would you kindly point out which of A and B has the smaller pIC50 figure? Which one? Tell me its label.
Resp: A
(A: 7.06, B: 7.29)

---

TESTED_TARGET: CYP2D6 (Homo sapiens)
Construct: tissue BD-Gentest 452117; host or cells: human liver microsomes
Sequence (P10635 whole entry): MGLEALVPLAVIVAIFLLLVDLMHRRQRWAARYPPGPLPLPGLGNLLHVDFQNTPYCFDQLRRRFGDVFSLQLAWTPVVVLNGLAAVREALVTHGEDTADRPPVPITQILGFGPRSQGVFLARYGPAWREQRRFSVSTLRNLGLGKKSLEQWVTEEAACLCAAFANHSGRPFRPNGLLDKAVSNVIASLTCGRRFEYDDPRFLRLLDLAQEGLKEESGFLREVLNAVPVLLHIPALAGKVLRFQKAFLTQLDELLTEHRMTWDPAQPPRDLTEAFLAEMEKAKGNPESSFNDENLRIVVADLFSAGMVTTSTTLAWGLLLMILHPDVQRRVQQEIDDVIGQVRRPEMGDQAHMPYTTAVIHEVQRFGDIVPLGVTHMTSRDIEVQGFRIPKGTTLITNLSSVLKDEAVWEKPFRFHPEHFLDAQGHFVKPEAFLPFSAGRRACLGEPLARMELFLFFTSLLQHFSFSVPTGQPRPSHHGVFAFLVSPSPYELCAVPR
ASSAY_REMARKS: CYP inhibition assay in human liver microsome
Type: in vitro ADME
EXPERIMENTAL_CONTEXT: liver microsomes, probe dextromethorphan, 10 μM compound, dextromethorphan substrate, percentage inhibition < 0: not or weak inhibitor, read-out: CYP 2D6 inhibition % @10 μM
EXPERIMENTAL_READOUT: inhibition at 10 min, 10 µM (%)

Use these answered entries as a reference point.
[[record]]
molecule = "C[C@@H]1CN(c2ccc(C#N)c3ncccc23)C[C@H](C)N1Cc1ncc(N2CCN(C(=O)CN(C)C)CC2)cn1"
tested_target = "CYP2D6 (Homo sapiens)"
experimental_readout = "inhibition at 10 min, 10 µM"
test_result = 5

[[record]]
molecule = "C[C@@H]1CN(c2ccc(C#N)c3ncccc23)C[C@H](C)N1Cc1ccc(N2CCNCC2)cc1"
tested_target = "CYP2D6 (Homo sapiens)"
experimental_readout = "inhibition at 10 min, 10 µM"
test_result = 17

[[record]]
molecule = "C[C@@H]1CN(c2ccc(C#N)c3ncccc23)C[C@H](C)N1Cc1ccc(N2CCN(C(=O)CN(C)C)CC2)cn1"
tested_target = "CYP2D6 (Homo sapiens)"
experimental_readout = "inhibition at 10 min, 10 µM"
test_result = 23

[[record]]
molecule = "C[C@@H]1CN(c2ccc(C#N)c3ncccc23)C[C@H](C)N1Cc1ccc(N[C@@H]2CNC[C@@H]2F)cn1"
tested_target = "CYP2D6 (Homo sapiens)"
experimental_readout = "inhibition at 10 min, 10 µM"
test_result = -6.5

[[record]]
molecule = "C[C@@H]1CN(c2ccc(C#N)c3ncccc23)C[C@H](C)N1Cc1ccc(N2CCNCC2)nc1"
tested_target = "CYP2D6 (Homo sapiens)"
experimental_readout = "inhibition at 10 min, 10 µM"
test_result = -2.5


(1) C[C@@H]1CN(c2ccc(C#N)c3ncccc23)C[C@H](C)N1Cc1ccc(N2CCN(C(=O)C3CCCN3)CC2)cn1 (stereo partly shown)
(2) C[C@@H]1CN(c2ccc(C#N)c3ncccc23)C[C@H](C)N1Cc1ccc(N2CC3CNCC(C2)O3)cn1
Req: Lowest inhibition at 10 min, 10 µM? choose 1 or 2 Please identify the chosen entry by its label.
Resp: 1

(P) C[C@@H]1CN(c2ccc(C#N)c3ncccc23)C[C@H](C)N1CC(=O)N1CCc2ccc(N3CCNCC3)cc2C1
(Q) CC1CN(c2ccc(C#N)c3ncccc23)CCN1CC(=O)Nc1ccc(N2CCNCC2)cc1 (stereo not shown)
Req: Compare reported inhibition at 10 min, 10 µM values for P and Q . Which is lower? Answer by stating the label of the chosen item.
Resp: Q
(Q: 7%, P: 19%)

(1) CC1CN(c2ccc(C#N)c3ncccc23)CCN1CC(=O)N1CCC(C2CCN(C)CC2)CC1 (stereo not shown)
(2) C[C@@H]1CN(c2ccc(C#N)c3ncccc23)C[C@H](C)N1CC(=O)N1Cc2ccc(N3CCNCC3)cc2C1
(3) C[C@@H]1CN(c2ccc(C#N)c3ncccc23)C[C@H](C)N1Cc1ccc(N2CCNCC2)cn1
Req: Rank items: key inhibition at 10 min, 10 µM, increasing. Answer format: the labels, in the requested order.
Resp: 2, 3, 1

Data origin, for the record: patent US11952363B2
